- Test system: HCT116
- assayNotes: cell viability (CellTiter-Glo) relative to plate median (fraction of plate median); higher = more viable cells
- setupConditions: 5 µM; treatment time 24 h; reporter: TCF4/Wnt
Decide using cell viability alone. Strictly below 1: 1.0. Equal to or above 1: 0.0.

Cc1nc2ccccc2c(=O)[nH]1 [2-Methyl-3H-quinazoline-4-on] :: 0.0
COc1ccc(-c2cc(=O)c3c(O)c(OC)c(OC)c(OC)c3o2)cc1 :: 0.0
CCN(CC)CCOC(=O)c1ccc(N)cc1 :: 0.0
O=C(O)C1(C(=O)O)CCC1.[NH2-].[NH2-].[Pt+2] :: 0.0
CN(C)[C@@H]1C(O)=C(C(N)=O)C(=O)[C@@]2(O)C(O)=C3C(=O)c4c(O)ccc(Cl)c4[C@@H](O)[C@H]3C[C@@H]12 :: 1.0

Strictly below 1: is that where cell viability of `CS(C)(=O)=O` sits?
0.0

Strictly below 1: is that where cell viability of `CC1=CC(=O)[C@H]2C(C)(C)CCC[C@]2(C)[C@@]1(O)CCc1ccoc1` sits?
0.0

Strictly below 1: is that where cell viability of `COc1c2occc2c(OC)c2c(=O)cc(C)oc12` sits?
1.0

Strictly below 1: is that where cell viability of `COc1ccc(NS(=O)(=O)c2ccc(N)cc2)nn1` sits?
0.0

Strictly below 1: is that where cell viability of C/C=C/C=C/c1cc2cc3c(c(O)c2c(=O)[nH]1)C1(CC3)C(O)=c2c(=O)c3c(=O)cc(OC)c(=O)c=3c(=O)c2=C1O (stereo unspecified) [Fredericamycin] sits?
1.0

Strictly below 1: is that where cell viability of CCCNCC(O)COc1ccccc1C(=O)CCc1ccccc1 (stereo unspecified) sits?
0.0

Strictly below 1: is that where cell viability of CCC(=O)C1(C)OC1C(C)CC(C)C1OC(=O)CC2(O)CC=C(C)C(O2)/C(C)=C/CCCC(OC2CC(OC(N)=O)C(O)C(C)O2)/C=C/C(C)C(O)C1C (stereo unspecified) [Irumamycin] sits?
0.0

Strictly below 1: is that where cell viability of `O=C(O)CCC(=O)c1ccc(-c2ccccc2)cc1` sits?
1.0

Strictly below 1: is that where cell viability of `O=C([O-])[C@H]1/C(=C/CO)O[C@@H]2CC(=O)N21.[Li+]` sits?
0.0

Strictly below 1: is that where cell viability of `O=c1cc(-c2ccccc2)oc2cccc(O)c12` sits?
0.0

Strictly below 1: is that where cell viability of `C[n+]1c2cc(N)ccc2cc2ccc(N)cc21` sits?
1.0

###

We begin with a simple list: items and their reported cell viability.
- System: HCT116
- assayNotes: cell viability (CellTiter-Glo) relative to plate median (fraction of plate median); higher = more viable cells
- setupConditions: 5 µM; treatment time 24 h; reporter: TCF4/Wnt

O=C(CNC(=O)c1ccc(Cl)cc1)NO :: 1
C[C@H](CS)C(=O)N1CCC[C@H]1C(=O)O :: 1.02
NNc1nncc2ccccc12 :: 1.06
C[N+](C)(C)CC(=O)O :: 0.98
CCCSc1ccc2[nH]c(NC(=O)OC)nc2c1 :: 0.893

Recall the recorded cell viability for `Cc1ccc(C)c(OCCCC(C)(C)C(=O)O)c1` with HCT116 and state it.
0.986

Recall the recorded cell viability for `COc1ccc([C@@H]2Sc3ccccc3N(CCN(C)C)C(=O)[C@@H]2OC(C)=O)cc1` with HCT116 and state it.
0.975

Recall the recorded cell viability for `O=C1c2c(O)cccc2Cc2cccc(O)c21` with HCT116 and state it.
1.02

Recall the recorded cell viability for `CC(C)CCC[C@@H](C)[C@H]1CC[C@H]2[C@@H]3CC(=O)[C@H]4C[C@@H](O)CC[C@]4(C)[C@H]3CC[C@]12C` with HCT116 and state it.
1.01

Recall the recorded cell viability for O=C1C(CC[S+]([O-])c2ccccc2)C(=O)N(c2ccccc2)N1c1ccccc1 (stereo not given) with HCT116 and state it.
1.09

Recall the recorded cell viability for `OC[C@@H](O)[C@@H](O[C@@H]1O[C@H](CO)[C@H](O)[C@H](O)[C@H]1O)[C@H](O)[C@@H](O)CO` with HCT116 and state it.
0.904

###

- Test system: SW480
- assayNotes: TCF/Wnt firefly luciferase reporter signal relative to plate median (fraction of plate median); higher = higher Wnt reporter signal
- setupConditions: 5 µM; treatment time 24 h; reporter: 7TFP
valueType: TCF/Wnt firefly luciferase reporter signal
Format: numeric value only, no unit, no commentary.

Reference set (5 entries):
Nc1[nH]cnc2ncnc1-2 :: 1.65
C[C@@H]1CC[C@@]23CCC4(C)[C@@](C=CC5[C@@]6(C)CCC(=O)C(C)(C)C6CC[C@]54C)(OC2=O)C3[C@H]1C (some centres not stated) :: 0.921
CC1(C)C=CC(=O)[C@@]2(C)C1CC(=O)[C@]1(C)C2CC[C@@]2(C)[C@H](c3ccoc3)OC(=O)C3OC321 (some centres not stated) :: 0.854
CC(=O)[C@@]1(O)CC[C@H]2[C@@H]3CCC4=CC(=O)CC[C@]4(C)[C@H]3CC[C@@]21C :: 1.02
CNCC[C@@H](Oc1ccccc1C)c1ccccc1 :: 1.08

Recall the recorded TCF/Wnt firefly luciferase reporter signal for `Fc1ccc([C@@H]2CCNC[C@H]2COc2ccc3c(c2)OCO3)cc1` with SW480 and state it.
1.13

Recall the recorded TCF/Wnt firefly luciferase reporter signal for O=C(/C=C(\O)c1ccccc1)c1ccccc1O [2',beta-DIHYDROXYCHALCONE] with SW480 and state it.
1.1

###

- System: DLD1
- assayNotes: TCF/Wnt firefly luciferase reporter signal relative to plate median (fraction of plate median); higher = higher Wnt reporter signal
- setupConditions: 5 µM; treatment time 24 h; reporter: 7TFP
valueType: TCF/Wnt firefly luciferase reporter signal
Format: numeric value only, no unit, no commentary.

Cc1ncc(CO)c(CO)c1O :: 0.951
CC(C)CCC[C@@H](C)C1CC[C@H]2[C@@H]3CCC4CC(=O)CC[C@]4(C)[C@H]3CC[C@]12C (stereo partly specified) :: 0.955
COc1cc2occ(-c3ccccc3)c(=O)c2c(OC)c1C :: 1.15
O=C1C=C2CC3(O)COc4c(ccc(O)c4O)C3=C2C=C1O (stereo unspecified) :: 0.943

Entry under review: `COc1ccc(Cl)cc1C(=O)NCCc1ccc(S(=O)(=O)NC(=O)NC2CCCCC2)cc1` . Reported TCF/Wnt firefly luciferase reporter signal?
1.12

Entry under review: `CCN(CC)CCOC(=O)C(c1ccccc1)c1ccccc1` . Reported TCF/Wnt firefly luciferase reporter signal?
0.904

###

- System: DLD1
- assayNotes: TCF/Wnt firefly luciferase reporter signal relative to plate median (fraction of plate median); higher = higher Wnt reporter signal
- setupConditions: 10 µM; treatment time 24 h; reporter: 7TFP
Counter-ions that a name gives are not always drawn.
valueType: TCF/Wnt firefly luciferase reporter signal

Reference set (6 entries):
C=CC(=O)Nc1cccc(Oc2nc(Nc3ccc(N4CCN(C)CC4)cc3OC)ncc2Cl)c1 :: 1.16
CC(C)CC(=O)Nc1n[nH]c2c1CN(C(=O)C1CCN(C)CC1)C2(C)C :: 1.33
Cc1ccc(-n2nc(C(C)(C)C)cc2NC(=O)Nc2ccc(OCCN3CCOCC3)c3ccccc23)cc1 :: 0.984
CCc1cnn2c(NCc3ccc[n+]([O-])c3)cc(N3CCCC[C@H]3CCO)nc12 :: 0.462
N=C(N)NC(=N)NCCc1ccccc1 [Phenformin hydrochloride] :: 1.26
O=C(NOCC(O)CO)c1cc(Br)c(F)c(F)c1Nc1ccc(I)cc1F (centres undefined) :: 1.72

Recall the recorded TCF/Wnt firefly luciferase reporter signal for `O=C(NC[C@H](O)CO)c1ccncc1Nc1ccc(I)cc1F` with DLD1 and state it.
1.71

Recall the recorded TCF/Wnt firefly luciferase reporter signal for COc1cc(Nc2ncc(F)c(Nc3ccc4c(n3)NC(=O)C(C)(C)O4)n2)cc(OC)c1OC [R406(free base)] with DLD1 and state it.
1.26

Recall the recorded TCF/Wnt firefly luciferase reporter signal for `O=C1NC(=O)/C(=C\c2ccc3nccnc3c2)S1` with DLD1 and state it.
1.38

Recall the recorded TCF/Wnt firefly luciferase reporter signal for `Cc1cc(Nc2cc(N3CCN(C)CC3)nc(Sc3ccc(NC(=O)C4CC4)cc3)n2)n[nH]1` with DLD1 and state it.
0.773

Recall the recorded TCF/Wnt firefly luciferase reporter signal for `CNC(=O)c1cccc(-c2ccc3c(N4CCOC[C@@H]4C)nc(N4CCOC[C@@H]4C)nc3n2)c1` with DLD1 and state it.
0.328

###

- Tested on: DLD1
- assayNotes: TCF/Wnt firefly luciferase reporter signal relative to plate median (fraction of plate median); higher = higher Wnt reporter signal
- setupConditions: 5 µM; treatment time 24 h; reporter: 7TFP
valueType: TCF/Wnt firefly luciferase reporter signal

COC(=O)[C@H](Cc1ccccc1)NC(=O)[C@@H](N)CC(=O)O :: 1.04
COc1ccc2c(c1)OCC(Cc1ccc(OC)c(O)c1)C2=O (stereo unspecified) :: 0.707
C[C@@H]1CC[C@@]2(OC1)O[C@H]1C[C@H]3[C@@H]4CC[C@H]5C[C@@H](O)CC[C@]5(C)[C@H]4CC[C@]3(C)[C@H]1[C@@H]2C :: 1.06
O=C(O)CCC(=O)c1ccc(-c2ccccc2)cc1 :: 1
CNC[C@H](O)c1ccc(O)c(O)c1 :: 1.11
CC1(C)C(=O)C=CC2(C)C1C=CC1(C)C2CCC2(C)C(c3ccoc3)OC(=O)C3OC312 (stereo unspecified) :: 1.01

Entry under review: `O=C(Nc1ccc([N+](=O)[O-])cc1Cl)c1cc(Cl)ccc1O` . Reported TCF/Wnt firefly luciferase reporter signal?
0.92

Entry under review: `COc1ccc(C(=O)c2ccc(O)cc2)c(O)c1O` . Reported TCF/Wnt firefly luciferase reporter signal?
1.03

Entry under review: `O=C(/C=C/c1ccc(O)c(O)c1)OCCc1ccccc1` . Reported TCF/Wnt firefly luciferase reporter signal?
0.948

Entry under review: `O=C(O)CCNC(=O)c1ccccc1` . Reported TCF/Wnt firefly luciferase reporter signal?
0.972

Entry under review: `O=c1c(-c2ccc(O)cc2)coc2cc(O)cc(O)c12` . Reported TCF/Wnt firefly luciferase reporter signal?
1.06
